Attribution: paper PMC7540527

Here we list compounds with their recorded CC50 when tested on HEL human embryonic lung fibroblast cells.

Consider the reported CC50 for these compounds:
1) CC(=O)NC1C(OC2c3ccc(c(Cl)c3)Oc3cc4cc(c3O)Oc3ccc(cc3Cl)CC3NC(=O)C(n5cc(COCCOCCCC(F)(F)C(F)(F)C(F)(F)C(F)(F)F)nn5)c5ccc(O)c(c5)Oc5cc(O)cc(c5)C(NC3=O)C(=O)NC4C(=O)NC3C(=O)NC2C(=O)NC(C(=O)O)c2cc(O)cc(O)c2-c2cc3ccc2O)OC(CO)C(O)C1O (stereo not drawn) = > 100 µM
2) CC(=O)NC1C(OC2c3ccc(c(Cl)c3)Oc3cc4cc(c3O)Oc3ccc(cc3Cl)CC3NC(=O)C(n5cc(COCCOCCOCCOCCOCCCC(F)(F)C(F)(F)C(F)(F)C(F)(F)C(F)(F)C(F)(F)C(F)(F)C(F)(F)F)nn5)c5ccc(O)c(c5)Oc5cc(O)cc(c5)C(NC3=O)C(=O)NC4C(=O)NC3C(=O)NC2C(=O)NC(C(=O)O)c2cc(O)cc(O)c2-c2cc3ccc2O)OC(CO)C(O)C1O (stereo not drawn) = > 100 µM

Form field CC50 for item CC(=O)NC1C(OC2c3ccc(c(Cl)c3)Oc3cc4cc(c3O)Oc3ccc(cc3Cl)CC3NC(=O)C(n5cc(COCCOCCOCCOCCOCCCC(F)(F)C(F)(F)C(F)(F)C(F)(F)F)nn5)c5ccc(O)c(c5)Oc5cc(O)cc(c5)C(NC3=O)C(=O)NC4C(=O)NC3C(=O)NC2C(=O)NC(C(=O)O)c2cc(O)cc(O)c2-c2cc3ccc2O)OC(CO)C(O)C1O (stereo not drawn) on HEL human embryonic lung fibroblast cells: > 100 µM

* * *

# System: Vero cells
# Condition notes: African green monkey
Reported endpoint: CC50

The molecule identified as CC(=O)NC1C(OC2c3ccc(c(Cl)c3)Oc3cc4cc(c3O)Oc3ccc(cc3Cl)CC3NC(=O)C(n5cc(COCCOCCCC(F)(F)C(F)(F)C(F)(F)C(F)(F)F)nn5)c5ccc(O)c(c5)Oc5cc(O)cc(c5)C(NC3=O)C(=O)NC4C(=O)NC3C(=O)NC2C(=O)NC(C(=O)O)c2cc(O)cc(O)c2-c2cc3ccc2O)OC(CO)C(O)C1O (stereo not shown) [Compound 15] registered its CC50 at > 100 µM

* * *

# Experiment summary: in vitro
# Condition notes: human
Reported endpoint: CC50

1. Cc1cn([C@H]2C[C@H](F)[C@@H](CO)O2)c(=O)[nH]c1=O = > 250 µM

Summary for this compound, Nc1nc2c(ncn2COCCO)c(=O)[nH]1 : CC50 is > 250 µM

Query Nc1ccn(C[C@@H](CO)OCP(=O)(O)O)c(=O)n1 yields CC50 of > 250 µM

* * *

# Tested on: human adenovirus type 2 (AdV-2)
# Experiment summary: microbe, parasite or virus in culture
# Format: cell-based
# Condition notes: Human mastadenovirus C, HEL, read-out: Antiviral EC50 AdV‐2
Reported endpoint: EC50 (µM)
Respond numerically; units are µM and should not be typed.

1. Cc1cn([C@H]2C[C@H](F)[C@@H](CO)O2)c(=O)[nH]c1=O [alovudine] = 5.9

Turning now to a further compound:
For this compound ( Nc1ccn(C[C@@H](CO)OCP(=O)(O)O)c(=O)n1 [cidofovir] ), measured EC50 is 6.4
